Biological target: Kras and SOS1 (biotin-tagged human Kras loaded with GDP, His-tagged human SOS1) (Homo sapiens, UniProt P01116, G12D)
Construct: made in house; host or cells: E. coli (stated for Kras only)
Sequence (P01116 1-188 isoform P01116-2 G12D): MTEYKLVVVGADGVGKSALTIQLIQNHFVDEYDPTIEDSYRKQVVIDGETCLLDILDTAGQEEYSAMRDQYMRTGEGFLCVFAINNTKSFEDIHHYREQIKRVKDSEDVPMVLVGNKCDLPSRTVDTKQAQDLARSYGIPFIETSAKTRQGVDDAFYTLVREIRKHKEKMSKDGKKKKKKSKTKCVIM
Assay: Protein-protein interaction inhibition between Kras and SOS1 (KrasGl2D-SOS PPI) using AlphaScreen
Format: binding
Conditions: AlphaScreen; biotin-tagged human Kras loaded with GDP, His-tagged human SOS1; read-out: KRAS G12D-SOS PPI IC50
Experimental: Protein-Protein Interaction Inhibition Between Kras and SOS1 (KrasGl2D-SOS PPI) Using AlphaScreen Protein-protein interaction inhibition (PPI) between Kras and SOS1 was measured by energy transfer from nickel-conjugated donor beads to streptavidin-conjugated acceptor beads using biotin-tagged human Kras expressed in E. coli and loaded with GDP after purification and His-tagged human SOS1 enzyme. […]
Positions of bridges follow the written chain, without caps; N, C: chain ends. Non-standard residues stand in square brackets, D forms with d. Residues, ends and D or L forms follow the SMILES beside them. *: point of attachment. hPhe(3-Cl-4-CF3) = N[C@@H](CCc1ccc(C(F)(F)F)c(Cl)c1)C(=O)O; NMePhe(4-CF3) = CN[C@@H](Cc1ccc(C(F)(F)F)cc1)C(=O)O; NMeGly(cPent) = CN[C@H](C(=O)O)C1CCCC1; Phe(3-I) = N[C@@H](Cc1cccc(I)c1)C(=O)O; NMeCha = CN[C@@H](CC1CCCCC1)C(=O)O; NMeE = CN[C@@H](CCC(=O)O)C(=O)O; NMeD = CN[C@@H](CC(=O)O)C(=O)O; NMeL = CN[C@@H](CC(C)C)C(=O)O; NMeA = CN[C@@H](C)C(=O)O; NMeAib = CNC(C)(C)C(=O)O; Piperidide = C1CCN(*)CC1; Pra = C#CC[C@H](N)C(=O)O; Ac5c = NC1(C(=O)O)CCCC1; Aze = O=C(O)[C@@H]1CCN1; Sar = CNCC(=O)O
IC50 values by entry
Please state the figure in nM; there is no need to write the unit.

1. CC[C@H](C)[C@@H]1NC(=O)[C@H](CC(C)C)N(C)C(=O)C[C@@H](C(=O)N(C)C)N(C)C(=O)[C@H](C2CCCC2)N(C)C(=O)C2(CCCC2)NC(=O)[C@H](CCC(=O)NC)N(C)C(=O)[C@H](CCc2ccc(C(F)(F)F)c(Cl)c2)NC(=O)CN(C)C(=O)[C@H](CC2CCCCC2)N(C)C(=O)[C@@H]2CCN2C(=O)[C@H](C)N(C)C1=O [Compound 1921] ([NMeL]I[NMeA][Aze][NMeCha][Sar][hPhe(3-Cl-4-CF3)][NMeE](NHMe)[Ac5c][NMeGly(cPent)][NMeD]-NMe2; lactam N-11); 0.83

Then this compound:
Q: GET /values?readout=IC50&item= C#CC[C@@H]1NC(=O)[C@H](Cc2cccc(I)c2)NC(=O)CN(C)C(=O)[C@H](Cc2ccc(C(F)(F)F)cc2)N(C)C(=O)[C@@H]2CCN2C(=O)CN(C)C(=O)[C@H]([C@@H](C)CC)NC(=O)[C@H](CC(C)C)N(C)C(=O)C[C@@H](C(=O)N2CCCCC2)N(C)C(=O)[C@H](CC(C)C)NC(=O)C(C)(C)N(C)C1=O [Compound 1425] ([NMeL]I[Sar][Aze][NMePhe(4-CF3)][Sar][Phe(3-I)][Pra][NMeAib]L[NMeD]-Piperidide; lactam N-11)
A: 19
